// reported IC50 for each item listed
# Assay target: human NLRP3 (Homo sapiens (Human), UniProt Q96P20)
# Sequence (Q96P20 whole entry): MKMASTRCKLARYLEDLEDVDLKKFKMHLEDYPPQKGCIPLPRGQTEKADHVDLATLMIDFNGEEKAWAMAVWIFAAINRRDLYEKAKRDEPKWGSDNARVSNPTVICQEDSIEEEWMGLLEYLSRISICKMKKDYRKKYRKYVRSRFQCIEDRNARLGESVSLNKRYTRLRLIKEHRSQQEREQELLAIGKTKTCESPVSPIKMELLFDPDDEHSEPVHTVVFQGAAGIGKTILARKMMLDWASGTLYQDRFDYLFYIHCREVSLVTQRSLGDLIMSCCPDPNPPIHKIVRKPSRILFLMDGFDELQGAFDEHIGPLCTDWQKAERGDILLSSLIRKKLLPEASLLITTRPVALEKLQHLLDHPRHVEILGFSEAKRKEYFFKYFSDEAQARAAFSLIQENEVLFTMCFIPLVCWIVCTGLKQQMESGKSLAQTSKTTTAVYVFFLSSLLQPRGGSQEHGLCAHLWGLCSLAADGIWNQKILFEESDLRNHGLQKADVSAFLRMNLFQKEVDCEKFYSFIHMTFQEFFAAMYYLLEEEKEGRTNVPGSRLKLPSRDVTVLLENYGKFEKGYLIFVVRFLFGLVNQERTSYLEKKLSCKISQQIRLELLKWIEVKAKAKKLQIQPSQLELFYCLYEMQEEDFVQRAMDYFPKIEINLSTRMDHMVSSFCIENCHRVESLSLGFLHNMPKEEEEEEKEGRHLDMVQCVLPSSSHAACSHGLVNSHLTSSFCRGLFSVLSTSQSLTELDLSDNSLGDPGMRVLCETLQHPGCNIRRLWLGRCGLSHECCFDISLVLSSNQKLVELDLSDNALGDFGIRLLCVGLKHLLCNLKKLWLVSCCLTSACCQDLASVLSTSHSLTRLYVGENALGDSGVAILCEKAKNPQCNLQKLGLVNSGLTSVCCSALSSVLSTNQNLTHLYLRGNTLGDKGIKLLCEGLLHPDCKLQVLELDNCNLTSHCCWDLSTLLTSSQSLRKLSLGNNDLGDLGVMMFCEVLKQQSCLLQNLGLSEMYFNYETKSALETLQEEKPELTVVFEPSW
# Assay summary: Scintillation Proximity (SPA) NLRP3 Assay: displacement of 3H-MCC950
# Assay type: binding
# Condition details: SPA IC50, displacement of 3H-MCC950

Illustrative cases are given below, each with its answer.
O=C(N[C@@H]1CCC[C@H]2CC[C@@H]1N2c1nnn[nH]1)C1(c2ccc(C(F)(F)F)cc2O)CC1 [88C*]    50 to 100 µM
C[C@H]1C[C@@H]2CC[C@H]([C@@H](NC(=O)C3(c4ccc(C(F)(F)F)cc4)CC3)C1)N2c1nnn[nH]1 [104B*]    10 to 50 µM
O=C(N[C@H]1CCC[C@@H]2CC[C@H]1N2c1nnn[nH]1)C1(c2ccc(C3CC3)cc2O)CC1 [93B*]    1 to 10 µM
O=C(N[C@@H]1CCC[C@H]2CC[C@@H]1N2c1nnn[nH]1)C1(c2ccc(C3CC3)cc2O)CC1 [93C*]    10 to 50 µM
O=C(N[C@H]1CCC[C@H]2CC[C@@H]1N2c1nnn[nH]1)C1(c2ccc(Cl)cc2)CC1 (single isomer, unassigned)    10 to 50 µM

// query Tell me measured IC50 for C[C@H]1C[C@H]2CC[C@@H]([C@@H](NC(=O)C3(c4ccc(C(F)(F)F)cc4)CC3)C1)N2c1nnn[nH]1 [104H*] please.
// result 50 to 100 µM

// query Tell me measured IC50 for O=C(N[C@H]1CCC[C@H]2CC[C@@H]1N2c1nnn[nH]1)C1(c2ccc(C(F)(F)F)cc2O)CC1 [88D*] please.
// result 1 to 10 µM

====

// reported IC50 for each item listed
# Assay target: human NLRP3 (Homo sapiens (Human))
# Assay summary: Scintillation Proximity (SPA) NLRP3 Assay: displacement of 3H-MCC950
# Assay type: binding
# Condition details: displacement of 3H-MCC950; read-out: SPA IC50

// query Tell me measured IC50 for Cc1c(Cl)ccc(C2(C(=O)N[C@H]3C[C@H](C)CCN(c4nnn[nH]4)C3)CC2)c1O (single isomer, unassigned) [21B*] please.
// result 1 to 10 µM

// query Tell me measured IC50 for C[C@@H]1CCN(c2nnn[nH]2)C[C@@H](NC(=O)C2(c3ccc(C(F)(F)F)cc3)CC2)C1 (single isomer, unassigned) [61C*] please.
// result 50 to 100 µM

====

# Assay target: human NLRP3 (Homo sapiens (Human))
# Assay summary: Scintillation Proximity (SPA) NLRP3 Assay: displacement of 3H-MCC950
# Type: binding
# Condition details: displacement of 3H-MCC950; read-out: SPA IC50
Measured quantity: IC50

Illustrative cases are given below, each with its answer.
C[C@H]1CCN(c2nnn[nH]2)C[C@@H](NC(=O)C2(c3ccc(OC(F)(F)F)c(F)c3O)CC2)C1 (single isomer, unassigned) [28D*]    1 to 10 µM
C[C@H]1CCN(c2nnn[nH]2)C[C@@H](NC(=O)C2(c3cnc(Cl)cc3O)CC2)C1 (single isomer, unassigned) [99D*]    10 to 50 µM

Let us examine a further case.
// query Tell me measured IC50 for C[C@@H]1CC[C@H](NC(=O)C2(c3ccc(Cl)cc3O)CC2)CN(c2nnn[nH]2)C1 (single isomer, unassigned) [90D*] please.
// result 1 to 10 µM

====

// reported pIC50 for each item listed
# Assay target: human NLRP3 (Homo sapiens (Human), UniProt Q96P20)
# Assay summary: Human PBMC NLRP3 Assay (LPS priming, ATP stimulation, cytokine measurement)
# Assay type: cell-based
# Condition details: human PBMC, LPS priming, ATP stimulation; read-out: PBMC IC50
pIC50: −log10 of the molar value.

Illustrative cases are given below, each with its answer.
C[C@@H]1CCN(c2nnn[nH]2)C[C@H](NC(=O)C2(c3ccc(Cl)c(F)c3O)CC2)C1 (single isomer, unassigned) [18A*]    > 8.00
C[C@H]1C[C@@H](NC(=O)C2(c3ccc(Cl)cc3)CC2)CN(c2nnn[nH]2)C1 [Compound 46A]    7.00 to 8.00
O=C(N[C@@H]1CCCN(c2nnn[nH]2)C1)C1(c2ccc(Cl)cc2)CC1 [Compound 10A]    < 6.30
C[C@@H]1CCN(c2nnn[nH]2)C[C@H](NC(=O)C2(c3cnc(Cl)cc3O)CC2)C1 (single isomer, unassigned) [99A*]    7.00 to 8.00
C[C@@H]1CCN(c2nnn[nH]2)C[C@H](NC(=O)C2(c3ccc(C(F)(F)F)c(F)c3)CC2)C1 (single isomer, unassigned) [66A*]    > 8.00

// query Report pIC50 from human NLRP3 (Homo sapiens (Human), UniProt Q96P20) testing of C[C@@H]1CCN(c2nnn[nH]2)C[C@H](NC(=O)C2(c3ccc(OC(F)F)cc3O)CC2)C1 (single isomer, unassigned) [70A*]
// result > 8.00

// query Report pIC50 from human NLRP3 (Homo sapiens (Human), UniProt Q96P20) testing of Cc1cc(Cl)cc(O)c1C1(C(=O)N[C@@H]2C[C@H](C)CN(c3nnn[nH]3)C2)CC1 [Compound 33A]
// result 7.00 to 8.00

====

# Assay target: human NLRP3 (Homo sapiens (Human), UniProt Q96P20)
# Assay summary: Scintillation Proximity (SPA) NLRP3 Assay: displacement of 3H-MCC950
# Type: binding
# Condition details: displacement of 3H-MCC950; read-out: SPA IC50
pIC50: −log10 of the molar value.
// reported pIC50 for each item listed

Illustrative cases are given below, each with its answer.
C[C@@H]1C[C@@H](NC(=O)C2(c3ccc(C(F)(F)F)cc3)CC2)[C@H]2CC[C@@H]1N2c1nnn[nH]1 [79A*]    > 6.00
C[C@H]1C[C@@H]2CC[C@H]([C@H](NC(=O)C3(c4ccc(C(F)(F)F)cc4)CC3)C1)N2c1nnn[nH]1 [104A*]    > 6.00
C[C@@H]1CCN(c2nnn[nH]2)C[C@H](NC(=O)C2(c3ccc(OC(F)F)cc3F)CC2)C1 (single isomer, unassigned)    > 6.00

// query Report pIC50 from human NLRP3 (Homo sapiens (Human), UniProt Q96P20) testing of O=C(N[C@@H]1CCCCCN(c2nnn[nH]2)C1)C1(c2ccc(Cl)cc2)CC1 (single isomer, unassigned) [14A*]
// result > 6.00

// query Report pIC50 from human NLRP3 (Homo sapiens (Human), UniProt Q96P20) testing of C[C@@H]1CCN(c2nnn[nH]2)C[C@H](NC(=O)C2(c3ccc(OC(F)(F)F)c(F)c3O)CC2)C1 (single isomer, unassigned) [28A*]
// result > 6.00

// query Report pIC50 from human NLRP3 (Homo sapiens (Human), UniProt Q96P20) testing of CC(C)c1ccc(C2(C(=O)N[C@H]3C[C@H](C)CCN(c4nnn[nH]4)C3)CC2)c(O)c1 (single isomer, unassigned) [27B*]
// result 5.00 to 6.00

====

# Assay target: human NLRP3 (Homo sapiens (Human))
# Assay summary: Scintillation Proximity (SPA) NLRP3 Assay: displacement of 3H-MCC950
# Format: binding
# Condition details: displacement of 3H-MCC950; read-out: SPA IC50
Measured quantity: IC50

C[C@@H]1CCN(c2nnn[nH]2)C[C@@H](NC(=O)C2(c3ccc(Cl)cc3)CC2)C1 (single isomer, unassigned) [12B*]    10 to 50 µM

// query Tell me measured IC50 for O=C(N[C@@H]1CCCN(c2nnn[nH]2)C1)C1(c2ccc(Cl)cc2)CC1 [Compound 10A] please.
// result 1 to 10 µM

// query Tell me measured IC50 for C[C@H]1CCN(c2nnn[nH]2)C[C@@H](NC(=O)C2(c3c(F)cc(Cl)cc3F)CC2)C1 (single isomer, unassigned) [72D*] please.
// result 10 to 50 µM

// query Tell me measured IC50 for O=C(N[C@H]1CC[C@@H]2CC[C@H]1N2c1nnn[nH]1)C1(c2ccc(OC(F)(F)F)cc2O)CC1 [78B*] please.
// result 1 to 10 µM

====

# Assay target: human NLRP3 (Homo sapiens (Human), UniProt Q96P20)
# Assay summary: Human PBMC NLRP3 Assay (LPS priming, ATP stimulation, cytokine measurement)
# Type: cell-based
# Condition details: read-out: PBMC IC50
// reported IC50 for each item listed
Write the value in µM as a bare number.

Illustrative cases are given below, each with its answer.
O=C(N[C@@H]1CCCN(c2nnn[nH]2)C1)C1(c2ccc(Cl)cc2O)CC1 [Compound 15A]    0.2
C[C@H]1C[C@@H](NC(=O)C2(c3ccc(Cl)cc3)CC2)CN(c2nnn[nH]2)C1 [Compound 46A]    0.1
O=C(N[C@@H]1CCCN(c2nnn[nH]2)C1)C1(c2ccc(Cl)cc2F)CC1 [Compound 105]    0.85

// query Tell me measured IC50 for O=C(N[C@@H]1CCCCN(c2nnn[nH]2)C1)C1(c2ccc(Cl)cc2)CC1 [Compound 51A] please.
// result 0.044

// query Tell me measured IC50 for Cn1nnnc1N1CCC[C@@H](NC(=O)C2(c3ccc(Cl)cc3)CC2)C1 [Comparative Example F, reference compound] please.
// result 8.4
